Recorded inhibition, one value per entry.
system: Methionine sulfoxide reductase A (Bos taurus); assay: bovine MsrA enzyme inhibitors, primary screen, biochemical, absorbance, HTS (AID 651718); settings: purified bovine MsrA, absorbance read-out; at 15.5 µM; active compounds read high;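 note: 0% = vehicle wells with enzyme and 100% = reference inhibitor wells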
About 2,700 (0.75%) of roughly 360,000 compounds were called active. For the sample, actives were picked, then their nearest neighbours and some compounds at random.
endpoint_name: inhibition (%)

smiles_structure	endpoint_name	units_symbol	measured_result
Cc1ccc(C(=O)N/C(=C\c2cn(C)c3ccccc23)C(=O)N2CCN(C)CC2)cc1	inhibition	%	3.12
CCOC(=O)N1CCN(C(=O)CSc2nc(C)nc3c2c(=O)n(C)c(=O)n3C)CC1	inhibition	%	-1.46
NC(=O)c1ccc(Nc2ccc3c(c2)CCC3)c([N+](=O)[O-])c1	inhibition	%	13.9
CC1(C)N=C(c2ccccn2)C(C)(C)N1O	inhibition	%	0.21
Cc1ccc(OCCCC(=O)Nc2ccc(S(=O)(=O)Nc3cc(C)nc(C)n3)cc2)cc1	inhibition	%	0.56
Cc1ccc(N2C(=O)CN=C2Nc2nc(C)cc(C)n2)cc1	inhibition	%	6.56
